biological target: Inadl_9, Q8NI35; experiment: holdup assay; parameters: key: below the threshold = too weak to quantify, mostly under pKd 3.1 to 4; details: plain residues with an end cap or a label only (N-terminal biotin on a linker: ado-ado)
Sequence (Q8NI35 1530-1615): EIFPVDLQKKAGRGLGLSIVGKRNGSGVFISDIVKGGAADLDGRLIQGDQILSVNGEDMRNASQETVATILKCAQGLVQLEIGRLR
EXPERIMENTAL READOUT: pKd

Examples with answers:
> print(dat)
                        binder  experimental.readout           test.value
1   SSALYGESDL [ACTN2, P35609]                   pKd  below the threshold
2  LPHGHSTTRV [NLGN4X, Q8N0W4]                   pKd  below the threshold
3   YYKRPVQEWV [MMP24, Q9Y5R2]                   pKd                 4.17
4   IPLDGETEEL [MYOZ1, Q9NP98]                   pKd  below the threshold
5  DDEDRLVIEI [ZNF831, Q5JPB2]                   pKd                 3.48
6   PAPSSGKDYV [CLDN1, O95832]                   pKd                 3.61
7  EALLQMESVA [CAVIN3, Q969G5]                   pKd  below the threshold
8    RRRESYSTTV [EVI5, O60447]                   pKd                 3.88

Let's switch to this binder now.
Specify reported pKd for the binder shown: RKPKPSSSCC [RAB9A, P51151] below the threshold
